- TARGET_OR_SYSTEM: HGFR (Homo sapiens)
- Construct: purchased Upstate 14-526
- Sequence (P08581 974-1390 limits assumed): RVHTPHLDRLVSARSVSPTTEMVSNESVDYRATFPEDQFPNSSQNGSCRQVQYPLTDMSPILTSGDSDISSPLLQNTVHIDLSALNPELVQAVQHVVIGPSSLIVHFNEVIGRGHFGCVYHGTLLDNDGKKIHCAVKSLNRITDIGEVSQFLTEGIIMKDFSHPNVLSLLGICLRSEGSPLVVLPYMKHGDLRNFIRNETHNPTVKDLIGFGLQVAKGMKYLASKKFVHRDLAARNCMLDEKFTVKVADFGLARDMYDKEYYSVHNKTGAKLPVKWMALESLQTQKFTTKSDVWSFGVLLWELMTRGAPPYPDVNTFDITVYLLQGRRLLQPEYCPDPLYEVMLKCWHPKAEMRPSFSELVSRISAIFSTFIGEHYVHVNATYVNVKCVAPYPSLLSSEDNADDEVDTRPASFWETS
- ASSAY_OVERVIEW: HGFR continuous-coupled spectrophotometric assay
- Type: biochemical
- STATED_CONDITIONS: at 50 nM; Table 5, library procedure 40; read-out: % inhibition (percent c-MET inhibition)
VALUE_TYPE: inhibition at 0.05 µM (%)
Number only, in %; omit the unit.

Consider the compound CC(Oc1cc(-c2ccc(C(=O)NCC(F)(F)F)cc2)cnc1N)c1c(Cl)ccc(F)c1Cl (stereo not drawn) and give its recorded inhibition at 0.05 µM. 78

Consider the compound CC(Oc1cc(-c2ccc(C(=O)NCC(c3cccnc3)N(C)C)cc2)cnc1N)c1c(Cl)ccc(F)c1Cl (stereo not drawn) and give its recorded inhibition at 0.05 µM. 78

Consider the compound CC(O)CNC(=O)c1ccc(-c2cnc(N)c(OC(C)c3c(Cl)ccc(F)c3Cl)c2)cc1 (stereo not drawn) and give its recorded inhibition at 0.05 µM. 83

Consider the compound CC(Oc1cc(-c2ccc(C(=O)N3CCCCC3CN3CCCCC3)cc2)cnc1N)c1c(Cl)ccc(F)c1Cl (stereo not drawn) and give its recorded inhibition at 0.05 µM. 90

Consider the compound COCCCNC(=O)c1ccc(-c2cnc(N)c(OC(C)c3c(Cl)ccc(F)c3Cl)c2)cc1 (stereo not drawn) and give its recorded inhibition at 0.05 µM. 95

Consider the compound CC(Oc1cc(-c2ccc(C(=O)NCCC3CCOCC3)cc2)cnc1N)c1c(Cl)ccc(F)c1Cl (stereo not drawn) and give its recorded inhibition at 0.05 µM. 66

Consider the compound CC(Oc1cc(-c2ccc(C(=O)N3CCC(c4cccnc4)C3)cc2)cnc1N)c1c(Cl)ccc(F)c1Cl (stereo not drawn) and give its recorded inhibition at 0.05 µM. 79

Consider the compound CC(Oc1cc(-c2ccc(C(=O)NCc3cccnc3)cc2)cnc1N)c1c(Cl)ccc(F)c1Cl (stereo not drawn) and give its recorded inhibition at 0.05 µM. 64

Consider the compound CC(Oc1cc(-c2ccc(C(=O)NCCc3ccccc3F)cc2)cnc1N)c1c(Cl)ccc(F)c1Cl (stereo not drawn) and give its recorded inhibition at 0.05 µM. 55

Consider the compound CCN(CC)CCN1CCN(C(=O)c2ccc(-c3cnc(N)c(OC(C)c4c(Cl)ccc(F)c4Cl)c3)cc2)CC1 (stereo not drawn) and give its recorded inhibition at 0.05 µM. 78

Consider the compound CC(C)NC(=O)CN1CCN(C(=O)c2ccc(-c3cnc(N)c(OC(C)c4c(Cl)ccc(F)c4Cl)c3)cc2)CC1 (stereo not drawn) and give its recorded inhibition at 0.05 µM. 86

Consider the compound CC(Oc1cc(-c2ccc(C(=O)N3CCC(CO)CC3)cc2)cnc1N)c1c(Cl)ccc(F)c1Cl (stereo not drawn) and give its recorded inhibition at 0.05 µM. 79

Consider the compound CC(NC(=O)c1ccc(-c2cnc(N)c(OC(C)c3c(Cl)ccc(F)c3Cl)c2)cc1)c1ccc(O)cc1 (stereo not drawn) and give its recorded inhibition at 0.05 µM. 62

Consider the compound C#CCCN1CCN(C(=O)c2ccc(-c3cnc(N)c(OC(C)c4c(Cl)ccc(F)c4Cl)c3)cc2)CC1 (stereo not drawn) and give its recorded inhibition at 0.05 µM. 77

Consider the compound CC(C)OCCNC(=O)c1ccc(-c2cnc(N)c(OC(C)c3c(Cl)ccc(F)c3Cl)c2)cc1 (stereo not drawn) and give its recorded inhibition at 0.05 µM. 141

Consider the compound CC(Oc1cc(-c2ccc(C(=O)NCC(N)=O)cc2)cnc1N)c1c(Cl)ccc(F)c1Cl (stereo not drawn) and give its recorded inhibition at 0.05 µM. 86

Consider the compound CC(Oc1cc(-c2ccc(C(=O)NCC3CCOCC3)cc2)cnc1N)c1c(Cl)ccc(F)c1Cl (stereo not drawn) and give its recorded inhibition at 0.05 µM. 63

Consider the compound CC(Oc1cc(-c2ccc(C(=O)N(C)CCc3ccccn3)cc2)cnc1N)c1c(Cl)ccc(F)c1Cl (stereo not drawn) and give its recorded inhibition at 0.05 µM. 75

Consider the compound CC(Oc1cc(-c2ccc(C(=O)NCC3(N(C)C)CCOCC3)cc2)cnc1N)c1c(Cl)ccc(F)c1Cl (stereo not drawn) and give its recorded inhibition at 0.05 µM. 66

Consider the compound CC(CN(C)C)NC(=O)c1ccc(-c2cnc(N)c(OC(C)c3c(Cl)ccc(F)c3Cl)c2)cc1 (stereo not drawn) and give its recorded inhibition at 0.05 µM. 83

Consider the compound C[C@H](Oc1cc(-c2ccc(C(=O)NC[C@H](O)c3ccccc3)cc2)cnc1N)c1c(Cl)ccc(F)c1Cl and give its recorded inhibition at 0.05 µM. 69

###

- TARGET_OR_SYSTEM: HGFR (Homo sapiens)
- Construct: purchased Upstate 14-526
- ASSAY_OVERVIEW: HGFR continuous-coupled spectrophotometric assay
- Type: biochemical
- STATED_CONDITIONS: at 1 pM; Table 7, library procedure 42; read-out: % Inhibition (percent c-MET inhibition)
Task for the reader: assign each of the following compounds its reported inhibition at 1 pM.
Number only, in %; omit the unit.

Consider the compound CC(C)c1ccc(COc2cc(-c3ccc(C(=O)N4CCC(N5CCCC5)CC4)cc3)cnc2N)cc1 and give its recorded inhibition at 1 pM. 32

Consider the compound N#Cc1cccc(COc2cc(-c3ccc(C(=O)N4CCC(N5CCCC5)CC4)cc3)cnc2N)c1 and give its recorded inhibition at 1 pM. 12

Consider the compound CCc1ccn2cc(COc3cc(-c4ccc(C(=O)N5CCC(N6CCCC6)CC5)cc4)cnc3N)nc2c1 and give its recorded inhibition at 1 pM. 9

Consider the compound CCc1ccc(COc2cc(-c3ccc(C(=O)N4CCC(N5CCCC5)CC4)cc3)cnc2N)nc1 and give its recorded inhibition at 1 pM. 15

###

- TARGET_OR_SYSTEM: HGFR (Homo sapiens)
- Construct: purchased Upstate 14-526
- ASSAY_OVERVIEW: HGFR continuous-coupled spectrophotometric assay
- Assay type: biochemical
- STATED_CONDITIONS: at 1 pM; Table 7, library procedure 42; read-out: % Inhibition (percent c-MET inhibition)
Assign class by inhibition at 1 pM: not lower than 10% means Condition met; lower than 10% means Condition not met.

Check if inhibition at 1 pM >= 10% (inclusive). Item: Nc1ncc(-c2ccc(C(=O)N3CCC(N4CCCC4)CC3)cc2)cc1OCc1nc(N)c2ccccc2n1 Condition met

Check if inhibition at 1 pM >= 10% (inclusive). Item: Nc1ncc(-c2ccc(C(=O)N3CCC(N4CCCC4)CC3)cc2)cc1OCc1ccc(S(=O)(=O)c2ccc(F)cc2)cc1 Condition met

Check if inhibition at 1 pM >= 10% (inclusive). Item: Nc1ncc(-c2ccc(C(=O)N3CCC(N4CCCC4)CC3)cc2)cc1OCc1c(F)ccc(F)c1Cl Condition met

Check if inhibition at 1 pM >= 10% (inclusive). Item: Cc1oc(-c2cccc(F)c2)nc1COc1cc(-c2ccc(C(=O)N3CCC(N4CCCC4)CC3)cc2)cnc1N Condition not met

Check if inhibition at 1 pM >= 10% (inclusive). Item: Nc1ncc(-c2ccc(C(=O)N3CCC(N4CCCC4)CC3)cc2)cc1OCc1cccc(-c2ccnc(Br)n2)c1 Condition met

Check if inhibition at 1 pM >= 10% (inclusive). Item: Nc1ncc(-c2ccc(C(=O)N3CCC(N4CCCC4)CC3)cc2)cc1OCc1nnnn1Cc1ccccc1 Condition met

###

- TARGET_OR_SYSTEM: Met kinase domain (GST fusion protein) (Homo sapiens)
- Construct: Purified GST fusion protein containing the Met kinase domain
- Sequence (P08581 1078-1345 limits assumed): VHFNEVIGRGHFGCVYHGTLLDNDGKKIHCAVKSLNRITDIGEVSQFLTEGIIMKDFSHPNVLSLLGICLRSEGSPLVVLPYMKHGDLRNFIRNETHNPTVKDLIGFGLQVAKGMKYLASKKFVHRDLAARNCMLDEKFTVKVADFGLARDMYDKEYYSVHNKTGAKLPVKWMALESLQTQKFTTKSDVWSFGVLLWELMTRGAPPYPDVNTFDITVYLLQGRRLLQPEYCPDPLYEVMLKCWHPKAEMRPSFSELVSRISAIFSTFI
- ASSAY_OVERVIEW: Met transphosphorylation assay (ELISA, poly(glu-tyr) substrate);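 also: Cell-free ELISA with plate-bound poly(Glu:Tyr 4:1) phosphorylated by GST-fused Met kinase domain plus ATP and Mn2+, phosphotyrosine detected by anti-phosphotyrosine antibody with HRP and ABTS read-out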
- Type: biochemical
- STATED_CONDITIONS: plain numbers in column Met IC50 (μM) of Table 2; read-out: Met IC50
Checkbox rule: IC50 lower than 0.1 µM = satisfied; IC50 not lower than 0.1 µM = not satisfied.

# TODO verify IC50 < 0.1 µM strictly for this compound: Nc1ncc(-c2ccccn2)cc1OCc1ccccc1 [Example I-488] not satisfied

# TODO verify IC50 < 0.1 µM strictly for this compound: CC(Oc1cc(-c2cccc(C(=O)N3CCN(C)CC3)n2)cnc1N)c1c(F)ccc(F)c1Cl (stereo not shown) [Example I-519] not satisfied

# TODO verify IC50 < 0.1 µM strictly for this compound: CC(Oc1cc(-c2ccc(NS(C)(=O)=O)cc2)cnc1N)c1c(Cl)ccc(F)c1Cl (stereo not shown) [Example I-366] satisfied

# TODO verify IC50 < 0.1 µM strictly for this compound: CC(Oc1cc(-c2cccc(C(=O)N3C[C@@H](C)N[C@@H](C)C3)c2)cnc1N)c1c(Cl)cccc1Cl (stereo partly shown) [Example I-387] not satisfied

# TODO verify IC50 < 0.1 µM strictly for this compound: CC(Oc1cc(-c2ccc(NC(=O)NCCO)cc2)cnc1N)c1c(F)ccc(F)c1Cl (stereo not shown) [Example I-381] not satisfied

# TODO verify IC50 < 0.1 µM strictly for this compound: CC(Oc1cc(-c2ccc(N)nc2)cnc1N)c1c(Cl)ccc(F)c1Cl (stereo not shown) [Example I-510] satisfied

# TODO verify IC50 < 0.1 µM strictly for this compound: CC(Oc1cc(-c2ccsc2)cnc1N)c1c(Cl)ccc(F)c1Cl (stereo not shown) [Example I-369] satisfied

# TODO verify IC50 < 0.1 µM strictly for this compound: CC(Oc1cc(-c2ccc(NC(=O)NCCN3CCCC3)cc2)cnc1N)c1c(Cl)ccc(F)c1Cl (stereo not shown) [Example I-372] not satisfied

# TODO verify IC50 < 0.1 µM strictly for this compound: CC(Oc1cc(-c2ccc(C(=O)NCCCN3CCCC3)cc2)cnc1N)c1c(Cl)cccc1Cl (stereo not shown) [Example I-406] satisfied

# TODO verify IC50 < 0.1 µM strictly for this compound: CCCCOc1cnc(N)c(OC(C)c2c(F)ccc(F)c2Cl)c1 (stereo not shown) [Example I-532] not satisfied
